B1: Probable E3 ubiquitin-protein ligase MID2, residues 191 to 235; numbered along this chain, Q9UJV3 (parent)
chain: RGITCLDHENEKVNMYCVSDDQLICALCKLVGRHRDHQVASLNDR

Variants of: B1
TEST NAME: abundance fitness (aPCA) (normalised: wild type 0, dead -1); higher = more abundant; growth selection in yeast, the domain comes from the species named
CONDITIONS USED: Homo sapiens
// class assignment uses abundance fitness with these ranges: bucket A (below -0.3), bucket B (-0.3 to below -0.03), bucket C (-0.03 or more)

Some solved cases for reference:
* V13I | bucket C
* I24P | bucket C
* E11L | bucket A
* R35G | bucket C

Query block: Please let me know in which category the item D36W belongs.
Result block: bucket A

Query block: Please let me know in which category the item S41R belongs.
Result block: bucket B

Query block: Please let me know in which category the item L27E belongs.
Result block: bucket C

Query block: Please let me know in which category the item Q38N belongs.
Result block: bucket B

Query block: Please let me know in which category the item D44V belongs.
Result block: bucket B

Query block: Please let me know in which category the item T4A belongs.
Result block: bucket B

Query block: Please let me know in which category the item E9W belongs.
Result block: bucket B

Query block: Please let me know in which category the item K29H belongs.
Result block: bucket B

Query block: Please let me know in which category the item S41P belongs.
Result block: bucket C

// provenance: the Human Domainome abundance scans (Beltran et al. 2025)
